assayed_target: PI3K (p110α/p85α) (Homo sapiens)
Construct: purchased Carna Biosciences 07CBS-0402A
measurement_description: PI3K Activity Assay (ADP Hunter Plus)
Type: biochemical
condition_context: quantitative results of Table 4; read-out: PI3Kα IC50
endpoint_name: pIC50
FYI, pIC50 means -log10 of a concentration in mol per litre.

input: # query: pIC50 of entry NC(=O)c1cn2cc(-c3cccnc3)nc(N3CCCCC3)c2n1 [2-119]
output: 7.03

input: Do the same for Cc1cn2cc(-c3cccc4[nH]ncc34)nc(-c3ccncc3)c2n1 [2-168] please
output: 4.59

input: Do the same for CC(C)(C)OC(=O)N1CC2CN(Cc3cn4cc(-c5cccc6[nH]ncc56)nc(N5CCOCC5)c4n3)CC2C1 (stereo not drawn) [2-99] please
output: 5.10

input: Do the same for COc1cc(C)c(-c2cn3cc(CN4CCN(S(C)(=O)=O)CC4)nc3c(N3CCOCC3)n2)cn1 [2-153] please
output: 5.62

input: Do the same for c1cc(-c2cn3cc(CN4CC5CNCC5C4)nc3c(N3CCOCC3)n2)c2cn[nH]c2c1 (stereo not drawn) [2-117] please
output: 6.07

input: Do the same for Cc1ccc(-c2cn3cc(CN4CCN(S(C)(=O)=O)CC4)nc3c(N3CCOCC3)n2)cn1 [2-126] please
output: 6.11

input: Do the same for COc1ccc(-c2nc(N3CCOCC3)c3nc(CN4CCN(S(C)(=O)=O)CC4)cn3c2Cl)cn1 [2-109] please
output: 6.00

input: Do the same for CS(=O)(=O)N1CCN(Cc2cn3cc(-c4cn[nH]c4)nc(N4CCOCC4)c3n2)CC1 [2-90] please
output: 5.22

input: Do the same for CN(C)CCNC(=O)c1cn2cc(-c3cccnc3)nc(N3CCOCC3)c2n1 [2-147] please
output: 6.08

* * *

assayed_target: PI3K (p110α/p85α) (Homo sapiens, UniProt P42336)
Construct: purchased Carna Biosciences 07CBS-0402A
Sequence (P42336 whole entry): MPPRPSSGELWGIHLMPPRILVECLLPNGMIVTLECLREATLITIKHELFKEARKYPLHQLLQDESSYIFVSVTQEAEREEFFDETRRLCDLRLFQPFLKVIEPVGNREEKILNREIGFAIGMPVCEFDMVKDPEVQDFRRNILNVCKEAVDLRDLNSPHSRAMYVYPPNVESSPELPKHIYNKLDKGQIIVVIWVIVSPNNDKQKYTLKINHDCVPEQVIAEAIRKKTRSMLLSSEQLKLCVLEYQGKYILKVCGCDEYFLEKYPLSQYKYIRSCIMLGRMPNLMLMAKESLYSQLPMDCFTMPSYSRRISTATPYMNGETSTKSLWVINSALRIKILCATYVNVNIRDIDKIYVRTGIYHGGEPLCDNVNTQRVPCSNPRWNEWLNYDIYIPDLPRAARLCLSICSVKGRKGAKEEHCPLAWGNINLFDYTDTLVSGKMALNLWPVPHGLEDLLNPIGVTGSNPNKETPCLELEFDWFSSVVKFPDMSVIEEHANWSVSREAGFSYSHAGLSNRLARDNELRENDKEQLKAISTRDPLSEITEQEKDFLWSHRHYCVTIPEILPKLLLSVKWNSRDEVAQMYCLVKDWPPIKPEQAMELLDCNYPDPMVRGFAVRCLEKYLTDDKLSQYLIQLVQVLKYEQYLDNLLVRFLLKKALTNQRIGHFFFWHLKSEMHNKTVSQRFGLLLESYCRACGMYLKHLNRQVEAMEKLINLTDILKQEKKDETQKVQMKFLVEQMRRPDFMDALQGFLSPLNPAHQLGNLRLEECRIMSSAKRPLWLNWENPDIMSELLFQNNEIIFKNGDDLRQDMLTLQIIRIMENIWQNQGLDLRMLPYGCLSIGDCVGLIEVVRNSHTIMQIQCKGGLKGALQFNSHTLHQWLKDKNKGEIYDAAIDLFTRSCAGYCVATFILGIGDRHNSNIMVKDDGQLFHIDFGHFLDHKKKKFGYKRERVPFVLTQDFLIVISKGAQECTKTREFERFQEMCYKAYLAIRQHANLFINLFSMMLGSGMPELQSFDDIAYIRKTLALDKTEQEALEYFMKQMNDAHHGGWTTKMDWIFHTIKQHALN
Sequence (P27986 whole entry partner): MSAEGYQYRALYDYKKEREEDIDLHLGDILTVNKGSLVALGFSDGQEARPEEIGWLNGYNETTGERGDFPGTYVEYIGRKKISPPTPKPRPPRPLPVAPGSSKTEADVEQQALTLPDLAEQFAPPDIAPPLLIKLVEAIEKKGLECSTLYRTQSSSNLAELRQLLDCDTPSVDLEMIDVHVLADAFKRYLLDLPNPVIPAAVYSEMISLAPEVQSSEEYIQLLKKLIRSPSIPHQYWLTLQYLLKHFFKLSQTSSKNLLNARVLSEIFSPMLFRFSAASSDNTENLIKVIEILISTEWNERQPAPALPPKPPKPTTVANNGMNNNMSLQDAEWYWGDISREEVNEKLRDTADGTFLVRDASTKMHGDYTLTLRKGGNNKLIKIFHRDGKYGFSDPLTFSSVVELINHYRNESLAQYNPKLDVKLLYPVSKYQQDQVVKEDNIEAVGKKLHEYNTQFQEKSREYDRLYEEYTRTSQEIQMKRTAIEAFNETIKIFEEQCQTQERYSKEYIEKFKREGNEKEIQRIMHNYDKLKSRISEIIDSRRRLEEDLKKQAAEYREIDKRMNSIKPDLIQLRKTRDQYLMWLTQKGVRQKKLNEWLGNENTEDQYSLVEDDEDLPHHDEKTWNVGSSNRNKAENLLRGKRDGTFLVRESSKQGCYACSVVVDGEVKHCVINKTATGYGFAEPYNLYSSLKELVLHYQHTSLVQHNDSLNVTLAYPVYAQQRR
measurement_description: PI3K Activity Assay (ADP Hunter Plus)
Type: biochemical
condition_context: quantitative results; read-out: PI3Kα IC50
Classification by IC50 follows these ranges: interval 1: < 0.4 µM; interval 2: ≥ 0.4 µM and < 3 µM; interval 3: ≥ 3 µM

input: GET /class?item= Cc1cn2cc(-c3cncc(O)c3)nc(N3CCOCC3)c2n1
output: interval 1

input: Do the same for Cc1nc2c(N3CCOCC3)nc(-c3cccc4[nH]ncc34)cn2c1C1CCNCC1 please
output: interval 1

input: Do the same for COc1cncc(-c2cn3cc(C)nc3c(N3CCOCC3)n2)c1 please
output: interval 3

input: Do the same for Cc1cn2cc(-c3ccncc3)nc(N3CCOCC3)c2n1 please
output: interval 3

input: Do the same for N#Cc1cn2cc(-c3cccc4[nH]ncc34)nc(N3CCOCC3)c2n1 please
output: interval 2

input: Do the same for c1cc(-c2cn3cc(C4CC4)nc3c(N3CCOCC3)n2)c2cn[nH]c2c1 please
output: interval 2

input: Do the same for Cc1cn2cc(-c3cccc4[nH]ncc34)nc(N3CCOCC3)c2n1 please
output: interval 2

input: Do the same for Oc1cccc(-c2cn3cc(CN4CCOCC4)nc3c(N3CCOCC3)n2)c1 please
output: interval 2

input: Do the same for O=Cc1cn2cc(-c3cccc(O)c3)nc(N3CCOCC3)c2n1 please
output: interval 3

input: Do the same for CCNC(=O)c1cn2cc(-c3cccc4[nH]ncc34)nc(N3CCOCC3)c2n1 please
output: interval 1

* * *

assayed_target: PI3K (p110α/p85α) (Homo sapiens)
Construct: purchased Carna Biosciences 07CBS-0402A
measurement_description: PI3K Activity Assay (ADP Hunter Plus)
Format: biochemical
condition_context: quantitative results; read-out: PI3Kα IC50
Protocol: The kinase activity was measured by using the commercial ADP Hunter™ Plus assay available from DiscoveRx (#33-016), which is a homogeneous assay to measure the accumulation of ADP, a universal product of kinase activity. […] Reaction was carried out for 1 hour at 25° C. Reagent A and B were sequentially added to the wells and plates were incubated for 30 min at 37° C. […] Values were normalized against the control activity included for each enzyme (i.e., 100% PI3 kinase activity, without compound). […]
// assign true (1) if IC50 falls strictly below 500 nM, else false (0) (ties count as false (0))

input: Quick check: does Cc1cn2cc(-c3cccc(O)c3)nc(N3CCOCC3)c2n1 have IC50 under 500 nM?
output: true (1)

input: Do the same for O=C1CN(Cc2cn3cc(-c4cccc(O)c4)nc(N4CCOCC4)c3n2)CCN1 please
output: false (0)

input: Do the same for CNC(=O)c1cn2cc(-c3cccc4[nH]ncc34)nc(N3CCOCC3)c2n1 please
output: true (1)

input: Do the same for OCc1cn2cc(-c3cccc(O)c3)nc(N3CCOCC3)c2n1 please
output: false (0)

input: Do the same for O=C(O)c1cn2cc(-c3cccc(O)c3)nc(N3CCOCC3)c2n1 please
output: false (0)

input: Do the same for Cc1nc2c(N3CCOCC3)nc(-c3cccc4[nH]ncc34)cn2c1C1=CCNCC1 please
output: false (0)

input: Do the same for CS(=O)(=O)N1CCN(Cc2cn3cc(-c4cnc(N)c(C(F)(F)F)c4)nc(N4CCOCC4)c3n2)CC1 please
output: true (1)

input: Do the same for Cc1cn2c(I)c(-c3cccnc3)nc(N3CCOCC3)c2n1 please
output: true (1)

input: Do the same for Oc1cccc(-c2cn3cc(C4CC4)nc3c(N3CCOCC3)n2)c1 please
output: true (1)

* * *

assayed_target: PI3K (p110α/p85α) (Homo sapiens, UniProt P42336)
Construct: purchased Carna Biosciences 07CBS-0402A
measurement_description: PI3K Activity Assay (ADP Hunter Plus)
Assay type: biochemical
condition_context: quantitative results of Table 4; read-out: PI3Kα IC50
endpoint_name: log10(IC50) (log10 of the value in µM)
# values: log10(IC50), units µM

input: # value lookup — system PI3K (p110α/p85α) (Homo sapiens, UniProt P42336), readout log10(IC50), item CS(=O)(=O)N1CCC2(CC1)CN(Cc1cn3cc(-c4cnc(N)nc4)nc(N4CCOCC4)c3n1)C2
output: -0.96

input: Do the same for NC(=O)c1cn2cc(-c3ccncc3)nc(N3CCOCC3)c2n1 please
output: 0.59

input: Do the same for CS(=O)(=O)N1CCC2(CCN(Cc3cn4cc(-c5cccc6[nH]ncc56)nc(N5CCOCC5)c4n3)CC2)CC1 please
output: 0.11

input: Do the same for O=C(NCCN1CCOCC1)c1cn2cc(-c3cccnc3)nc(N3CCOCC3)c2n1 please
output: -0.40

input: Do the same for NC(=O)c1cn2c(Cl)c(-c3cccc4[nH]cc(Cl)c34)nc(N3CCOCC3)c2n1 please
output: 1.97

input: Do the same for COCCNC(=O)c1cn2cc(-c3cccnc3)nc(N3CCOCC3)c2n1 please
output: -0.78

input: Do the same for CS(=O)(=O)N1CCN(Cc2cn3cc(-c4c(F)ccc5[nH]cc(Cl)c45)nc(N4CCOCC4)c3n2)CC1 please
output: 1.70

input: Do the same for CS(=O)(=O)N1CCN(Cc2cn3cc(-c4ccc(N)cc4)nc(N4CCOCC4)c3n2)CC1 please
output: 1.52

input: Do the same for O=C1NCCC12CCN(Cc1cn3cc(-c4cccc5[nH]ncc45)nc(N4CCOCC4)c3n1)CC2 please
output: 0.15

input: Do the same for Cc1ccncc1-c1cn2cc(CN3CCN(S(C)(=O)=O)CC3)nc2c(N2CCOCC2)n1 please
output: -0.33

input: Do the same for NC(=O)c1cn2cc(-c3c(F)ccc4[nH]ccc34)nc(N3CCOCC3)c2n1 please
output: -0.05

input: Do the same for NC(=O)c1cn2cc(-c3cccc4[nH]ccc34)nc(N3CCOCC3)c2n1 please
output: -0.03

input: Do the same for CC(=O)NCCNC(=O)c1cn2cc(-c3cccnc3)nc(N3CCOCC3)c2n1 please
output: 0.36

input: Do the same for CC(C)(C)OC(=O)N1CCC2(CCN(Cc3cn4cc(-c5cccc6[nH]ncc56)nc(N5CCOCC5)c4n3)C2)CC1 please
output: 0.72

input: Do the same for COC(=O)Cc1cn2cc(-c3cccc4[nH]ncc34)nc(N3CCOCC3)c2n1 please
output: 0.41

input: Do the same for NC(=O)c1cn2cc(-c3c(F)ccc4[nH]cc(Cl)c34)nc(N3CCOCC3)c2n1 please
output: 2.09

input: Do the same for CC(C)(C)OC(=O)N1CCC2(CCN(Cc3cn4cc(-c5cccc6[nH]ncc56)nc(N5CCOCC5)c4n3)CC2)C1 please
output: 0.65

input: Do the same for CN(C)C(=O)c1cn2cc(-c3cccc4[nH]ncc34)nc(N3CCOCC3)c2n1 please
output: -0.05

input: Do the same for NC(=O)c1cn2c(Cl)c(-c3c(F)ccc4[nH]cc(Cl)c34)nc(N3CCOCC3)c2n1 please
output: 1.45

input: Do the same for CS(=O)(=O)N1CCC2(CCN(Cc3cn4cc(-c5cccc6[nH]ncc56)nc(N5CCOCC5)c4n3)CC2)C1 please
output: 0.72

input: Do the same for Nc1ncc(-c2cn3cc(C(=O)NCCN4CCOCC4)nc3c(N3CCOCC3)n2)cn1 please
output: -1.96

input: Do the same for c1cc(-c2cn3cc(CN4CCC5(CCNCC5)C4)nc3c(N3CCOCC3)n2)c2cn[nH]c2c1 please
output: 0.18

input: Do the same for NC(=O)c1cn2cc(-c3cnc(N)nc3)nc(N3CCCCC3)c2n1 please
output: 0.11

input: Do the same for CCOC(=O)c1cn2cc(-c3cnc(N)nc3)nc(N3CCOCC3)c2n1 please
output: -1.92

input: Do the same for CN(C)CCNC(=O)c1cn2cc(-c3cccc4[nH]ncc34)nc(N3CCOCC3)c2n1 please
output: -1.19

input: Do the same for Cc1cn2cc(-c3cnc(N)nc3)nc(-c3ccncc3)c2n1 please
output: 0.26

input: Do the same for CS(=O)(=O)N1CCC2(CC1)CN(Cc1cn3cc(-c4cccc5[nH]ncc45)nc(N4CCOCC4)c3n1)C2 please
output: 0.45
